Test: Therapeutic index, ratio of LD50 for toxicity in Sprague-Dawley rat to ED50 for anesthetic effect in Sprague-Dawley rat
Conditions: read-out: Ratio LD50/ED50
Examples of compounds with documented selectivity ratio follow.
// print number alone

>>> meas_value("C[C@@H](c1cccc([C@H](C)C2CC2)c1OCOP(=O)([O-])[O-])C1CC1.[Na+].[Na+]")
5.51
>>> meas_value("CC(C)c1cccc(C(C)C)c1OCOP(=O)([O-])[O-].[Na+].[Na+] [FOSPROPOFOL DISODIUM]")
4.61

Continue with the compound presented below.
Query :: State its selectivity ratio for this compound: CC(C)c1cccc([C@H](C)C2CC2)c1OCOP(=O)([O-])[O-].[Na+].[Na+]
Result :: 4.74
